Listed next: entries and their corresponding GI50.
# Tested on: UACC-257 melanoma
# methodNotes: NCI tumour cell line growth inhibition, 48 h
quantityName: GI50

1. COc1ccc2c(c1)C(=O)c1c-2n(CCCNCCO)c(=O)c2ccccc12; 0.541 µM
2. Cn1cc(C2=C(c3cn(CCCO)c4ccccc34)C(=O)NC2=O)c2ccccc21; 8.15 µM
3. O=C(C[Si](CC(=O)c1cccc(C(F)(F)F)c1)CC(=O)c1cccc(C(F)(F)F)c1)c1cccc(C(F)(F)F)c1; 2.65 µM
4. CCOC(=O)c1cc2c(c3ccsc13)C1(C)CCC3c4ccc(OC)cc4CCC3C1C2 (configuration not stated); > 100 µM
5. COc1ccc2nc3cc(Cl)ccc3c(NCCCCCN3CCCCC3)c2c1; 1.94 µM
6. C[C@@H](O)[C@H]1C(=O)N2C(C(=O)O)=C(SCCN=CN)C[C@H]12; 1.8 µM
7. Cc1ccc(C2=C(c3ccc(C)cc3)C3(c4ccc(C)cc4)[C@@H](C#N)[C@H](C#N)C2(c2ccc(C)cc2)S3=O)cc1 (some centres not stated); > 100 µM
